Reported IC50 by item:
Target: serine/threonine kinase (ssSTK) (Streptococcus suis, UniProt A0A0H3MXV7)
Construct: 6 × his-tagged kinase domain of ssSTK (ssSTK^KD, pET28a-stk^KD) is the wild-type expression construct described; the assay text says 'purified ssSTK'
Sequence (A0A0H3MXV7 entry or part of it): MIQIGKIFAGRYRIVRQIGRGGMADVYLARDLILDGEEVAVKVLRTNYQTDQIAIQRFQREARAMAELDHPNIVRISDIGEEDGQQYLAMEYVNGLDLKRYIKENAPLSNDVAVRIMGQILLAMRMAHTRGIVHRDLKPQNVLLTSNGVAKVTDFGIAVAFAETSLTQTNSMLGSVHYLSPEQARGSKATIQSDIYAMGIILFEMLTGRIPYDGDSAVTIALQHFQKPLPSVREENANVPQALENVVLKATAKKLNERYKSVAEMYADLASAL
Assay: Kinase-Glo ATP consumption assay of autophosphorylation; confirmed by anti-P-Thr western blot
In your response, the unit should come after the numeric value.

Examples with answers:
* O=C(Nc1c[nH]nc1-c1nc2cc(CN3CCOCC3)ccc2[nH]1)NC1CC1 | 10.6 µM
* c1cc(Nc2cc(C3CC3)[nH]n2)nc(Nc2ccc3[nH]cnc3c2)n1 | 10.1 µM
* COC(=O)[C@@]1(O)C[C@H]2O[C@]1(C)n1c3ccccc3c3c4c(c5c6ccccc6n2c5c31)C(=O)NC4 [K252a] | 13.8 µM

Query block: What measured IC50 goes with CN[C@@H]1C[C@H]2O[C@@](C)([C@@H]1OC)n1c3ccccc3c3c4c(c5c6ccccc6n2c5c31)C(=O)NC4 ?
Result block: 8.97 µM
